Tested on: Pseudogymnoascus destructans 20631-21
Assay: growth activity index (DuctApe, 0 = no growth, 9 = maximal growth) (index 0-9); higher = more fungal growth (less inhibition), active = 0 or less; extreme values may be limits of the assay
Conditions: concentration level (1-4, increasing; Biolog proprietary): 1; temperature: 13 °C; YPD
Select the matching outcome among T (active), F (inactive)

Prompt line: Tell me the recorded outcome of this test for CNC1CC(N)C(O)C(OC2OC(CO)C(O)C3OC4(OC(C(N)CO)C(O)C(O)C4O)OC23)C1O (centres undefined) [Hygromycin B] (Biolog plate: PM25) .
Response line: F

Prompt line: Tell me the recorded outcome of this test for Nc1ncn[nH]1 [3-Amino-1,2,4-triazole] (Biolog plate: PM22) .
Response line: T

Prompt line: Tell me the recorded outcome of this test for [N-]=[N+]=[N-] [Sodium Azide] (Biolog plate: PM23) .
Response line: F

Prompt line: Tell me the recorded outcome of this test for N#CO [Sodium Cyanate] (Biolog plate: PM23) .
Response line: F

Prompt line: Tell me the recorded outcome of this test for [Cl][Cd][Cl] [Cadmium Chloride] (Biolog plate: PM23) .
Response line: F

Prompt line: Tell me the recorded outcome of this test for CCCCCCCCCCCCCCCC[n+]1ccccc1 [Cetylpyridinium chloride] (Biolog plate: PM21) .
Response line: F

Prompt line: Tell me the recorded outcome of this test for CC1C=CC=CCCC=CC=CC=CC=CC(OC2OC(C)C(O)C(N)C2O)CC2OC(O)(CC(O)C(O)CCC(O)CC(O)CC(O)CC(=O)OC(C)C(C)C1O)CC(O)C2C(=O)O (centres undefined) [Nystatin] (Biolog plate: PM21) .
Response line: F

Prompt line: Tell me the recorded outcome of this test for CCCC1COC(Cn2cncn2)(c2ccc(Cl)cc2Cl)O1 (centres undefined) [Propiconazole] (Biolog plate: PM24) .
Response line: F

Prompt line: Tell me the recorded outcome of this test for C[C@@H]1C[C@@H]([C@H](O)CC2CC(=O)NC(=O)C2)C(=O)[C@@H](C)C1 [Cycloheximide] (Biolog plate: PM22) .
Response line: F

====

Test system: Pseudogymnoascus destructans 20631-21
Experiment: growth activity index (DuctApe, 0 = no growth, 9 = maximal growth) (index 0-9); higher = more fungal growth (less inhibition), active = 0 or less; extreme values may be limits of the assay
Conditions: concentration level (1-4, increasing; Biolog proprietary): 3; temperature: 13 °C; YPD
Select the matching outcome among active, inactive

Prompt line: Tell me the recorded outcome of this test for O=[Se]([O-])[O-].[Na+].[Na+] [Sodium Selenite] (Biolog plate: PM21) .
Response line: inactive

Prompt line: Tell me the recorded outcome of this test for N.N.[Cl][Pt][Cl] [Cisplatin] (Biolog plate: PM24) .
Response line: inactive

Prompt line: Tell me the recorded outcome of this test for CCCCCCCCCCCCCCCC[n+]1ccccc1 [Cetylpyridinium chloride] (Biolog plate: PM21) .
Response line: active

Prompt line: Tell me the recorded outcome of this test for Nc1ccncc1 [4-Aminopyridine] (Biolog plate: PM25) .
Response line: inactive

Prompt line: Tell me the recorded outcome of this test for [O-][I+3]([O-])([O-])O [Sodium metaperiodate] (Biolog plate: PM23) .
Response line: inactive

====

System: Pseudogymnoascus destructans 20631-21
Experiment: growth activity index (DuctApe, 0 = no growth, 9 = maximal growth) (index 0-9); higher = more fungal growth (less inhibition), active = 0 or less; extreme values may be limits of the assay
Conditions: concentration level (1-4, increasing; Biolog proprietary): 3; temperature: 13 °C; YPD
So I've got a bunch of compounds here, and I need their growth activity index values.
Kindly provide the number alone.

Prompt line: I have this compound here, [K+].[K+].[O]=[Cr](=[O])([O-])[O-] [Potassium Chromate] (Biolog plate: PM24) , and I need its recorded growth activity index.
Response line: 4

Prompt line: I have this compound here, N#CO [Sodium Cyanate] (Biolog plate: PM23) , and I need its recorded growth activity index.
Response line: 4.33

Prompt line: I have this compound here, Nc1ncn[nH]1 [3-Amino-1,2,4-triazole] (Biolog plate: PM22) , and I need its recorded growth activity index.
Response line: 0

Prompt line: I have this compound here, [N-]=[N+]=[N-] [Sodium Azide] (Biolog plate: PM23) , and I need its recorded growth activity index.
Response line: 0

Prompt line: I have this compound here, CC1C=CC=CCCC=CC=CC=CC=CC(OC2OC(C)C(O)C(N)C2O)CC2OC(O)(CC(O)C(O)CCC(O)CC(O)CC(O)CC(=O)OC(C)C(C)C1O)CC(O)C2C(=O)O (stereo not drawn) [Nystatin] (Biolog plate: PM21) , and I need its recorded growth activity index.
Response line: 0

Prompt line: I have this compound here, O=[Se](=O)([O-])[O-].[Na+].[Na+] [Sodium Selenate] (Biolog plate: PM23) , and I need its recorded growth activity index.
Response line: 2.67

Prompt line: I have this compound here, [N-]=[N+]=CC(=O)OC[C@H](N)C(=O)O [Azaserine] (Biolog plate: PM22) , and I need its recorded growth activity index.
Response line: 4.67

Prompt line: I have this compound here, [Cl][Ni][Cl] [Nickel chloride] (Biolog plate: PM21) , and I need its recorded growth activity index.
Response line: 4.5

====

System: Pseudogymnoascus destructans 20631-21
Experiment: growth activity index (DuctApe, 0 = no growth, 9 = maximal growth) (index 0-9); higher = more fungal growth (less inhibition), active = 0 or less; extreme values may be limits of the assay
Conditions: concentration level (1-4, increasing; Biolog proprietary): 1; temperature: 13 °C; YPD
Measured Parameter: growth activity index
Kindly provide the number alone.

Prompt line: I have this compound here, O=[Se](=O)([O-])[O-].[Na+].[Na+] [Sodium Selenate] (Biolog plate: PM23) , and I need its recorded growth activity index.
Response line: 5

Prompt line: I have this compound here, O=[Se]([O-])[O-].[Na+].[Na+] [Sodium Selenite] (Biolog plate: PM21) , and I need its recorded growth activity index.
Response line: 6

Prompt line: I have this compound here, N.N.[Cl][Pt][Cl] [Cisplatin] (Biolog plate: PM24) , and I need its recorded growth activity index.
Response line: 5

Prompt line: I have this compound here, [N-]=[N+]=CC(=O)OC[C@H](N)C(=O)O [Azaserine] (Biolog plate: PM22) , and I need its recorded growth activity index.
Response line: 5

Prompt line: I have this compound here, [O-][I+3]([O-])([O-])O [Sodium metaperiodate] (Biolog plate: PM23) , and I need its recorded growth activity index.
Response line: 2

====

Test system: Pseudogymnoascus destructans 20631-21
Assay: growth activity index (DuctApe, 0 = no growth, 9 = maximal growth) (index 0-9); higher = more fungal growth (less inhibition), active = 0 or less; extreme values may be limits of the assay
Settings: concentration level (1-4, increasing; Biolog proprietary): 2; temperature: 13 °C; YPD
So I've got a bunch of compounds here, and I need their growth activity index values.
Kindly provide the number alone.

Prompt line: Could you share what growth activity index was measured for CCCCC(C#N)(Cn1cncn1)c1ccc(Cl)cc1 (stereo not drawn) [Myclobutanil] (Biolog plate: PM22) , tested on Pseudogymnoascus destructans 20631-21?
Response line: 0.667

Prompt line: Could you share what growth activity index was measured for CNC1CC(N)C(O)C(OC2OC(CO)C(O)C3OC4(OC(C(N)CO)C(O)C(O)C4O)OC23)C1O (stereo not drawn) [Hygromycin B] (Biolog plate: PM25) , tested on Pseudogymnoascus destructans 20631-21?
Response line: 2

Prompt line: Could you share what growth activity index was measured for [Cl][Cd][Cl] [Cadmium Chloride] (Biolog plate: PM23) , tested on Pseudogymnoascus destructans 20631-21?
Response line: 2

====

Test system: Pseudogymnoascus destructans 20631-21;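 also: biolog Phenotype Microarray plates PM21–25, OD595 followed daily over 11 days, growth curves converted to index, mean of two independent experiments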
Assay: growth activity index (DuctApe, 0 = no growth, 9 = maximal growth) (index 0-9); higher = more fungal growth (less inhibition), active = 0 or less; extreme values may be limits of the assay
Details: concentration level (1-4, increasing; Biolog proprietary): 4; temperature: 13 °C; YPD
Select the matching outcome among active, inactive

Prompt line: Tell me the recorded outcome of this test for CCCC1COC(Cn2cncn2)(c2ccc(Cl)cc2Cl)O1 (stereo unspecified) [Propiconazole] (Biolog plate: PM24) .
Response line: inactive

Prompt line: Tell me the recorded outcome of this test for [Cl][Cr]([Cl])[Cl] [Chromium (III) chloride] (Biolog plate: PM23) .
Response line: inactive

Prompt line: Tell me the recorded outcome of this test for [Na+].[Na+].[O]=[Cr](=[O])([O-])[O][Cr](=[O])(=[O])[O-] [Sodium Dichromate] (Biolog plate: PM21) .
Response line: inactive

Prompt line: Tell me the recorded outcome of this test for Nc1ccncc1 [4-Aminopyridine] (Biolog plate: PM25) .
Response line: inactive

Prompt line: Tell me the recorded outcome of this test for C[C@@H]1C[C@@H]([C@H](O)CC2CC(=O)NC(=O)C2)C(=O)[C@@H](C)C1 [Cycloheximide] (Biolog plate: PM22) .
Response line: inactive

Prompt line: Tell me the recorded outcome of this test for CNC1CC(N)C(O)C(OC2OC(CO)C(O)C3OC4(OC(C(N)CO)C(O)C(O)C4O)OC23)C1O (stereo unspecified) [Hygromycin B] (Biolog plate: PM25) .
Response line: active

Prompt line: Tell me the recorded outcome of this test for CC1C=CC=CCCC=CC=CC=CC=CC(OC2OC(C)C(O)C(N)C2O)CC2OC(O)(CC(O)C(O)CCC(O)CC(O)CC(O)CC(=O)OC(C)C(C)C1O)CC(O)C2C(=O)O (stereo unspecified) [Nystatin] (Biolog plate: PM21) .
Response line: active

Prompt line: Tell me the recorded outcome of this test for CCCCCCCCCCCCCCCC[n+]1ccccc1 [Cetylpyridinium chloride] (Biolog plate: PM21) .
Response line: active

Prompt line: Tell me the recorded outcome of this test for O=[As][O-].[Na+] [Sodium Arsenite] (Biolog plate: PM23) .
Response line: inactive

Prompt line: Tell me the recorded outcome of this test for [O-][I+3]([O-])([O-])O [Sodium metaperiodate] (Biolog plate: PM23) .
Response line: inactive

Prompt line: Tell me the recorded outcome of this test for [K+].[K+].[O]=[Cr](=[O])([O-])[O-] [Potassium Chromate] (Biolog plate: PM24) .
Response line: inactive
